assay: Tested for inhibition of glucosamine-6P synthase; parameters: species or system Escherichia coli
recordedMetric: Ki (nM)
Give the value in nM but do not write nM after it.

NC(CC1CCC(=O)C2OC12)C(=O)O (stereo not drawn)    220
O=C(O)C1CCC=N1 (racemic)    23000

Lab note: next compound to report on.
Quick check: Ki of NC(=O)/C=C/C(=O)NCC(N)C(=O)O (stereo not drawn) ?
150

====

assay: Tested for inhibition of fructose-6P synthase
recordedMetric: Ki (µM)
Give the value in µM but do not write µM after it.

Quick check: Ki of NC(CO)C(O)C(O)C(O)COP(=O)(O)O (stereo unspecified) ?
25

Origin of values: ChEMBL document CHEMBL1128876
